The origin of these recorded values is ChEMBL document CHEMBL3433997.

tgt: Hexose transporter 1 (Plasmodium falciparum) (UniProt O97467)
assay-summary: ST_JUDE_LEISH: Cytotoxicity at 2uM final concentration against transgenic Leishmania Mexicana promastigotes LmPfHT that are glucose transport deficient and complemented with the Plasmodium falciparum hexose transporter. Activity is measured by DNA content using SYBR green in vitro
Assay type: functional
measure-name: inhibition (%)
Write the answer as a number in %, unit excluded.

Field: example entries. Status: answers known.
compound	value-unit	inhibition
CCCCCCNC(=O)c1nn(CCN2CCC(N3CCCC3)CC2)cc1-c1ccc(Cl)c(Cl)c1	%	1.84
O=C(N[C@@H](Cc1ccccc1)[C@H](O)CNC1CCCc2ccccc21)c1cc(C2CCCC2)cc(N2CCCC2=O)c1 (some centres undefined)	%	0.77
CC(Cc1ccc(NC(=O)c2ccc(CNCCCCc3ccccc3)cc2)cc1)NCCc1cccc(Cl)c1 (centres undefined)	%	102
CCCCCN1CCCCC(NS(=O)(=O)c2ccc(C(=O)Nc3cccc(C(F)(F)F)c3)cc2)C1 (centres undefined)	%	5.05
COc1cc(OC)c(OC)cc1C=NN=c1cc(C)[nH]c2ccccc12	%	1.67

(Q) So what does the record say about inhibition for CCCCCc1ccc(NC(=O)Nc2ccc(Cn3ncc(N4CCCNCC4)c(Cl)c3=O)cc2)cc1 ?
(A) -1.27

(Q) So what does the record say about inhibition for COc1ccc(NC(=O)C2c3ccccc3C(=O)N(C3CCCC3)C2c2cccs2)cc1 (centres undefined) ?
(A) 4.78

(Q) So what does the record say about inhibition for Cn1cnc(CCNC(=O)c2ccc(-c3ccc(-c4nc5cc(C(F)(F)F)ccc5[nH]4)s3)cc2)c1 ?
(A) 3.77

(Q) So what does the record say about inhibition for COc1ccc2c(NN=Cc3cccnc3)ccnc2c1 ?
(A) 2.02

(Q) So what does the record say about inhibition for Cc1ccc(Nc2ccnc3ccc(C(F)(F)F)cc23)cc1O ?
(A) 3.33

(Q) So what does the record say about inhibition for COc1cc(F)c2nccc([C@@H](O)CN3CCC(NC(=O)OCc4ccccc4)C(F)C3)c2c1 (some centres undefined) ?
(A) 16.3

(Q) So what does the record say about inhibition for COc1ccccc1C1CCN(C2CCC(NC(=O)/C=C/c3cc(C(F)(F)F)ccc3F)CC2)CC1 (centres undefined) ?
(A) 2.36

(Q) So what does the record say about inhibition for COc1c(C=NNc2nc(=Nc3ccccc3)[nH]c(=Nc3ccccc3)[nH]2)ccc(Br)c1O ?
(A) 11.7

(Q) So what does the record say about inhibition for FC(F)(F)c1ccc2[nH]c(-c3cccc(-c4cccc(CNCC5CCCO5)c4)c3)nc2c1 (centres undefined) ?
(A) 3.63

###

Property: inhibition; scope: individual molecules
tgt: Hexose transporter 1 (Plasmodium falciparum) (UniProt O97467)
assay-summary: ST_JUDE_LEISH: Cytotoxicity at 2uM final concentration against transgenic Leishmania Mexicana promastigotes LmPfHT that are glucose transport deficient and complemented with the Plasmodium falciparum hexose transporter. Activity is measured by DNA content using SYBR green in vitro
Assay type: functional
Write the answer as a number in %, unit excluded.

Field: example entries. Status: answers known.
molecule	value-unit	inhibition
COc1cc(Cc2cnc(N)nc2N)ccc1OCc1ccc(-c2csnn2)cc1	%	9.64
Cc1ccc(-n2ncc(C(=O)Nc3cc(Cl)cc(Cl)c3)c2C2CCNCC2)cc1C	%	1.43
O=C1OC2(CN1CC1CCN(Cc3ccc(-n4ccnc4)cc3)C1)c1ccccc1-c1ccccc12 (stereo unspecified)	%	5.24

(Q) So what does the record say about inhibition for CCC(C)c1ccc(Nc2nc(C)cc(N(CC)CCCN3CCCCC3)n2)cc1 (stereo unspecified) ?
(A) 0.87

(Q) So what does the record say about inhibition for CCC(C(C)C)n1ccc2c3c(N)nc(N)nc3ccc21 (stereo unspecified) ?
(A) 84.6

(Q) So what does the record say about inhibition for Cc1cccnc1CNc1nccc2c(C)c(C)[nH]c12 ?
(A) 2.33

(Q) So what does the record say about inhibition for CN1CCC(C(=O)N(Cc2ccc(-c3ccc(CNCCc4ccc(S(C)(=O)=O)cc4)cn3)cc2)Cc2cccc(F)c2)CC1 ?
(A) 0.58

(Q) So what does the record say about inhibition for COc1cc(C(=O)NC2CCc3ccccc32)cc(Cl)c1OC (stereo unspecified) ?
(A) -0.96

(Q) So what does the record say about inhibition for COc1cccc2cc(C(=O)N[C@@H](CC(C)C)C(=O)N[C@H](/C=N/NC(=O)OC(C)(C)C)CC(=O)OC(C)(C)C)oc12 ?
(A) 6.98

(Q) So what does the record say about inhibition for Cc1nc2c(c(C)nn2C(C)(C)C)c(C)c1CCC(=O)Nc1ccc(CN2CCCC2)cc1 ?
(A) 6.16

(Q) So what does the record say about inhibition for N#Cc1ccc(C=NNc2nc3ccccc3[nH]2)cc1 ?
(A) 1.98

(Q) So what does the record say about inhibition for COc1ccc2c(NN=Cc3ccc(Cl)cc3)ccnc2c1 ?
(A) 2.42
